System: K4 kissing-loop RNA reporter
Assay: apparent KD of K4 kissing-loop reporter; higher = weaker reporter binding
Conditions: Eterna round: R107; input ligand: theophylline 20 uM
reportedProperty: apparent KD of K4 kissing-loop reporter
A complete answer gives the number and then names the unit.

Below, each entry is followed by its recorded apparent KD of K4 kissing-loop reporter result.
AGUGCACUGUCAGGAUAUAUACAGUGAUGUUGUGUAUGUCGGCAAGUCAAAGACUUGCCAUUCUGUGUAGAAGGGACUGUGUACA [#04 K4 FMN B Exclusion] = 202 nM
UUAGUCUAGAGAGGAUAUCAGUGAUGUUGAUAUCAAGAUCUGAGAUAGAAUUCUAUCUCAGAUCAAUGAGAAGGCUCUAGACAUU [AK1.2 Exc FMN B] = 147 nM

Kindly review the next sequence as well.
// query Give the reported value of apparent KD of K4 kissing-loop reporter for this record: CACGUUUACCAAGGAUAUGGUCUGCCGCGGAACCGUUCAAGUGAUGUUUGAUUCGAGUAUUAAUCUCCAGAAGGUGGUAGUACAG [theeternabot_exclusion_KL_FMN_B_6]
// result 476 nM

###

Test system: MS2 coat protein
Test: apparent KD of MS2 coat protein; designed switch direction (-1 OFF switch, 1 ON switch): -1; higher = weaker reporter binding
Details: Eterna round: R95; input ligand: none
The label depends only on apparent KD of MS2 coat protein: Met if it is at least 20 nM, Not met if it is smaller.

AGUACUAACACGAAAGUGUUAGUACAAUAAGCUUGUGAAACAUGAGGAUCACCCAUGUCCUCAUACGCUCGUCUUAU [salish99_TOv2_r3_055] (puzzle: Sensor v3, turn-off variant 2) = Met
GAUUAUGCGAGCUUUAGGGACAUGAGGAUCACCCAUGUUCGUCUUAUUGAUCUAGGUACGCUGACGUACCUAAAUCU [Mod of one of jandersonlee's solutions] (puzzle: Sensor v3, turn-off variant 1) = Met
AGAAAUGCCCAUGGCCACAAGCUUUUUGCUUGUCUUACUACAUGAGGAUCACCCAUGUAACAUGGGCUCCUGACAAA [Soarriat] (puzzle: Sensor v3, turn-off variant 2) = Not met

As a next step, examine the sequence that follows.
// query Check the entry CAAAAGGUAGGAUAUACGAAAAAAAAGGGUAGAAAAAAAACACAUGAGGAUCACCCAUGUAGAAGGACCAAAAG [salish99_ex2_r3_053] (puzzle: Exclusion 2) : does apparent KD of MS2 coat protein equal or exceed 20 nM?
// result Met

###

Measured apparent KD of MS2 coat protein, listed per entry.
Tested on: MS2 coat protein
Assay: apparent KD of MS2 coat protein; higher = weaker reporter binding
Conditions: Eterna round: R107; input ligand: arginine 13.2 mM
Report the figure in nM without appending any unit label.

Some solved entries appear below for comparison.
UGGCAAGAGGGAAGGAGCGUCAGCUGAGUCACAUGAGGAUCACCCAUGUCGCACAUAGUGUGACAGGUAGGUCGCCCUCUGCCGU [Vesosocera] = 70
UCCUUAGAUACUGAUACCAGACUACAGUAAACAUGAGGAUCACCCAUGUUUGAUCACUAAGUCCCUUGGCAGCAGGUACAUGGGA [Theo B SS r1] = 12.6
GCCGCGGCCGCGAUACACAUGGGUGUGUAACGAGGACCGGUACGGCCGCCACUCGAGAUGGCACAUGAGGAUCACCCAUGUGUGC [Exclusion Tryp A GF16] = 17.1
GGGCGCGUGGACUGGCGUGCUCCGCUCCGUCGAGGACCGGUACGGCCGCCACUCGACAUGAGGAUCACCCAUGUGUGAGCUCGCG [#1 Exclusion - Tryptophan A Attempt #17 (HarryS)] = 62.9

// query Item CGCCUACAGGUGUACUAUUGUGGUGAAGAUACCAGAUAGCCCAAUAUCCCUUGGCAGCUUCAGACAUGAGGAUCACCCAUGUAUC [theeternabot_exclusion_MS2_Theo_A_30] : provide apparent KD of MS2 coat protein
// result 17.8

###

Test system: MS2 coat protein
Assay: apparent KD of MS2 coat protein; designed switch direction (-1 OFF switch, 1 ON switch): 1; higher = weaker reporter binding
Conditions: Eterna round: R95; input ligand: microRNA oligo, concentration not stated
reportedProperty: apparent KD of MS2 coat protein

ACAAGCUUUUCUGCAUUGAAAGGUGGGAUACAUGAGGAUCACCCAUGUUUUUAUGAAAAUAAUGCUCCUCGUCUUAU [JR_SHM208A_Sub092] (puzzle: Sensor for hsa-mir-208a) = 50.3 nM
AAAGUACAUGAGGAUCACCCAUGUCCAAACAAGUAAGGAUAUACGAAAACAAAACAAAAUGUAGAAGGUACAACAA [Same State 1 #2] (puzzle: Same State 1) = 17.9 nM

// query Consider the sequence AGCGAAAUAAGCAAGGAUAUGUAAUUUGGCACAUGAGGAUCACCCAUGUCAAUCCAUUUUUUUGAACAGAAGGUGCAUUUUUUUU [ak second] (puzzle: Same State 2) . State its measured apparent KD of MS2 coat protein.
// result 53.5 nM

// query Indicate its recorded apparent KD of MS2 coat protein; the sequence in question is AGUCCAGCCUGAGCUGGACAAAAGCAUGUACAUGAGGAUCACCCAUGUCAUGUACAAGCUUUUUGCUCGUUUUAAUA [Zipper 49 - 14] (puzzle: Sensor for hsa-mir-208a)
// result 14 nM

// query Please give the documented apparent KD of MS2 coat protein of GCAUCACAUGAGGAUCACCCAUGUCUUCGGAGCCGAGGAUAUGGUCACUGUAAACAGUGGCCAGAAGGCGGGAUGC [SS1 - Son of Teenbexe v1] (puzzle: Same State 1)
// result 41.5 nM

###

System: MS2 coat protein
Assay: apparent KD of MS2 coat protein; higher = weaker reporter binding
Conditions: Eterna round: R107; input ligand: theophylline 2 mM
// not satisfied strictly below 30 nM in apparent KD of MS2 coat protein; satisfied otherwise

// query Tell me whether apparent KD of MS2 coat protein is at least 30 nM here: CCUUAAUAUAGAAGGAGCGCGCUAACAUGAGGAUCACCCAUGUAAAGGGUUUUGGGCUUAGCGCAGGUAGGUCGCUAUAAGAACC [Arg B Ex t2]
// result satisfied

// query Check this sequence for apparent KD of MS2 coat protein at or above 30 nM: AAUGUAUUCCACAUGAGGAUCACCCAUGUGCGAGGACCGGUACGGCCGCCACUCGGUGUUGGGAUCAGUUCUGAAUACAUUAAUG [XTryp A #24]
// result not satisfied

###

System: K4 kissing-loop RNA reporter;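 note: bound reporter read as fluorescence of individual clusters on recovered sequencing chips by microscopy, with normalized cluster intensities fitted with a binding model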
Experiment: apparent KD of K4 kissing-loop reporter; higher = weaker reporter binding
Settings: Eterna round: R107; input ligand: FMN 200 uM
Please use satisfied whenever apparent KD of K4 kissing-loop reporter is not below 300 nM, and not satisfied whenever it is.

GGUAGCAUGGCGGCCGCCACUUAGACUGGAUCGGAAACGAUCCAGUGAAAACGAGUGAUGUUCGUAAGGACCGGGCCAUGCUACC = satisfied
GCAACAUUGGCAGGAUAUCCUUCUCAGUGAUGUUGAGGGUUCAGCUAACGAAAGUUAGUUGUACCAGGAGAAGGGCUAAUGUUGC [Omei KL FMN B SS A v7] = satisfied

// query Hi, just wondering whether GCUAUGGUAGGAAGGAGCGCUUGCUCGGUCAUAAGAGUGAUGUUCGAGACCGAGCAUUUAUAGCAGGUAGGUCGCCUACUAUAGC [Arginine B K4 7] shows apparent KD of K4 kissing-loop reporter of 300 nM or higher.
// result satisfied

// query Tell me whether apparent KD of K4 kissing-loop reporter is at least 300 nM here: AUGUUGAGCGGAAGGAGCGGCUGAACCAGUGAUGUUGGUUAAUCCAAGUGAUGUUGGAAAAGCCAGGUAGGUCGCCGCUUUAUGU [Same State Arg B GF 2]
// result satisfied

// query Can GGAUGCAUUUUGGAUACCAGUCUAGUGAUGUUAGACUGAUAAUAACGGGCAGCGUUGGCAGACCCUUGGCAGCCAAAAUACUUAA [theeternabot_exclusion_KL_Theo_B_33] be said to have apparent KD of K4 kissing-loop reporter at or above 300 nM?
// result not satisfied

###

System: MS2 coat protein
Test: apparent KD of MS2 coat protein; higher = weaker reporter binding
Conditions: Eterna round: R107; input ligand: arginine 13.2 mM
Decision: apparent KD of MS2 coat protein >= 50 nM yields TRUE, all other cases yield FALSE.

CAUACUUGAUCCUAUGAGCCUAUUUGUGAUACCAGCAUCUAAAUUUGCCCUUGGCAGCACUAACAUGAGGAUCACCCAUGUUAUA [JR_Nu_ExcTheophyA_Sub028] = FALSE

// query Please check the record AGCGGCUCGAAAGAGUCGCACUCAUGUGAAGGAGCGCCCGUAAGGGCAGGUAGGUCGCACAUGAGGAUCACCCAUGUACCUUCUA [MAT - Exclusion Arginine A - Mod of Eli - D20] and state if its apparent KD of MS2 coat protein is at or above 50 nM.
// result TRUE
